assay: in vivo; details: female, athymic nude-Foxn1nu/Foxn1+, mouse, 20 pmol, total radioactivity, Biodistribution Bone
Where a SMILES comes first, the peptide text is derived from it. Bridges are numbered along the chain shown (N, C = ends). [ ]: non-standard residue; d: D form. The star is where a group is joined. dPhe(4-NHCONH2) = NC(=O)Nc1ccc(C[C@@H](N)C(=O)O)cc1; Phe(4-Cl) = N[C@@H](Cc1ccc(Cl)cc1)C(=O)O; X1 = NCCNCC(CNCCN)C(=O)*
TEST_READOUT: tissue uptake at 24 h (%ID/g)
State just the number; it will be interpreted in %ID/g.

Note to self: tissue uptake at 24 h recorded for C[C@@H](O)[C@@H]1NC(=O)[C@H](CCCCN)NC(=O)[C@@H](Cc2ccc(NC(N)=O)cc2)NC(=O)[C@H](Cc2ccc(O)cc2)NC(=O)[C@H](NC(=O)[C@H](Cc2ccc(Cl)cc2)NC(=O)C(CNCCN)CNCCN)CSSC[C@@H](C(=O)N[C@H](Cc2ccc(O)cc2)C(N)=O)NC1=O [[^99mTc]Tc-TECANT-1, metal not drawn] (X1-[Phe(4-Cl)][dC]Y[dPhe(4-NHCONH2)]KTC[dY]-NH2; disulfide 2-7) was 0.35

Note to self: tissue uptake at 24 h recorded for C[C@@H](O)[C@@H]1NC(=O)[C@H](CCCCN)NC(=O)[C@@H](Cc2c[nH]c3ccccc23)NC(=O)[C@H](Cc2ccc(O)cc2)NC(=O)[C@H](NC(=O)[C@H](Cc2ccc(Cl)cc2)NC(=O)C(CNCCN)CNCCN)CSSC[C@@H](C(=O)N[C@H](Cc2ccc(O)cc2)C(N)=O)NC1=O [[^99mTc]Tc-TECANT-2, metal not drawn] was 0.2

* * *

Could you please report measured tissue uptake at 1 h for the items listed next?
assay: in vivo; conditions: female, athymic nude-Foxn1nu/Foxn1+, mouse, 20 pmol, total radioactivity, Biodistribution Bone
Where a SMILES comes first, the peptide text is derived from it. Bridges are numbered along the chain shown (N, C = ends). [ ]: non-standard residue; d: D form. The star is where a group is joined. dPhe(4-NHCONH2) = NC(=O)Nc1ccc(C[C@@H](N)C(=O)O)cc1; Phe(4-Cl) = N[C@@H](Cc1ccc(Cl)cc1)C(=O)O; X1 = NCCNCC(CNCCN)C(=O)*

Note to self: tissue uptake at 1 h recorded for C[C@@H](O)[C@@H]1NC(=O)[C@H](CCCCN)NC(=O)[C@@H](Cc2c[nH]c3ccccc23)NC(=O)[C@H](Cc2ccc(O)cc2)NC(=O)[C@H](NC(=O)[C@H](Cc2ccc(Cl)cc2)NC(=O)C(CNCCN)CNCCN)CSSC[C@@H](C(=O)N[C@H](Cc2ccc(O)cc2)C(N)=O)NC1=O [[^99mTc]Tc-TECANT-2, metal not drawn] was 1.67 %ID/g

Note to self: tissue uptake at 1 h recorded for C[C@@H](O)[C@@H]1NC(=O)[C@H](CCCCN)NC(=O)[C@@H](Cc2ccc(NC(N)=O)cc2)NC(=O)[C@H](Cc2ccc(O)cc2)NC(=O)[C@H](NC(=O)[C@H](Cc2ccc(Cl)cc2)NC(=O)C(CNCCN)CNCCN)CSSC[C@@H](C(=O)N[C@H](Cc2ccc(O)cc2)C(N)=O)NC1=O [[^99mTc]Tc-TECANT-1, metal not drawn] (X1-[Phe(4-Cl)][dC]Y[dPhe(4-NHCONH2)]KTC[dY]-NH2; disulfide 2-7) was 1.41 %ID/g

Sourced from paper PMC7824897
